# Test system: Acinetobacter calcoaceticus
# assay_remarks: Expected efficacy of antibiotic agents
# Format: cell-based
# condition_description: Gram: neg
observed_property: efficacy against Acinetobacter calcoaceticus

CC[C@H]1OC(=O)[C@H](C)[C@@H](O[C@H]2C[C@@](C)(OC)[C@@H](O)[C@H](C)O2)[C@H](C)[C@@H](O[C@@H]2O[C@H](C)C[C@H](N(C)C)[C@H]2O)[C@](C)(O)C[C@@H](C)CN(C)[C@H](C)[C@@H](O)[C@]1(C)O :: no
CN[C@H](CC(C)C)C(=O)N[C@H]1C(=O)N[C@@H](CC(N)=O)C(=O)N[C@H]2C(=O)N[C@H]3C(=O)N[C@H](C(=O)N[C@H](C(=O)O)c4cc(O)cc(O)c4-c4cc3ccc4O)[C@H](O)c3ccc(c(Cl)c3)Oc3cc2cc(c3O[C@@H]2O[C@H](CO)[C@@H](O)[C@H](O)[C@H]2O[C@H]2C[C@](C)(N)[C@H](O)[C@H](C)O2)Oc2ccc(cc2Cl)[C@H]1O :: no

----------
# System: Shigella dysenteriae
# assay_remarks: Expected efficacy of antibiotic agents
# Assay type: cell-based
# condition_description: Gram: neg
observed_property: efficacy against Shigella dysenteriae

CO/N=C(\C(=O)N[C@@H]1C(=O)N2C(C(=O)O)=C(CSc3nc(=O)c(=O)[nH]n3C)CS[C@H]12)c1csc(N)n1 :: yes
CN[C@H](CC(C)C)C(=O)N[C@H]1C(=O)N[C@@H](CC(N)=O)C(=O)N[C@H]2C(=O)N[C@H]3C(=O)N[C@H](C(=O)N[C@H](C(=O)O)c4cc(O)cc(O)c4-c4cc3ccc4O)[C@H](O)c3ccc(c(Cl)c3)Oc3cc2cc(c3O[C@@H]2O[C@H](CO)[C@@H](O)[C@H](O)[C@H]2O[C@H]2C[C@](C)(N)[C@H](O)[C@H](C)O2)Oc2ccc(cc2Cl)[C@H]1O :: no
O=C(O)c1cn(C2CC2)c2cc(N3CCNCC3)c(F)cc2c1=O :: yes
NC[C@H]1O[C@H](O[C@H]2[C@H](O)[C@@H](O[C@H]3O[C@H](CO)[C@@H](O)[C@H](N)[C@H]3O)[C@H](N)C[C@@H]2N)[C@H](N)C[C@@H]1O :: yes

Shifting focus to the compound that follows.
Entry C/C(=C\C(=O)OCCCCCCCCC(=O)O)C[C@@H]1OC[C@H](C[C@@H]2O[C@H]2[C@@H](C)[C@H](C)O)[C@@H](O)[C@H]1O has what efficacy against Shigella dysenteriae? no

----------
# System: Klebsiella (Calymmatobacterium) granulomatis
# assay_remarks: Expected efficacy of antibiotic agents
# Type: cell-based
# condition_description: Gram: neg
observed_property: efficacy against Klebsiella (Calymmatobacterium) granulomatis

CO/N=C(\C(=O)N[C@@H]1C(=O)N2C(C(=O)O)=C(CSc3nc(=O)c(=O)[nH]n3C)CS[C@H]12)c1csc(N)n1 :: yes
C/C(=C\C(=O)OCCCCCCCCC(=O)O)C[C@@H]1OC[C@H](C[C@@H]2O[C@H]2[C@@H](C)[C@H](C)O)[C@@H](O)[C@H]1O :: no
CN[C@H](CC(C)C)C(=O)N[C@H]1C(=O)N[C@@H](CC(N)=O)C(=O)N[C@H]2C(=O)N[C@H]3C(=O)N[C@H](C(=O)N[C@H](C(=O)O)c4cc(O)cc(O)c4-c4cc3ccc4O)[C@H](O)c3ccc(c(Cl)c3)Oc3cc2cc(c3O[C@@H]2O[C@H](CO)[C@@H](O)[C@H](O)[C@H]2O[C@H]2C[C@](C)(N)[C@H](O)[C@H](C)O2)Oc2ccc(cc2Cl)[C@H]1O :: no
CC[C@H]1OC(=O)[C@H](C)[C@@H](O[C@H]2C[C@@](C)(OC)[C@@H](O)[C@H](C)O2)[C@H](C)[C@@H](O[C@@H]2O[C@H](C)C[C@H](N(C)C)[C@H]2O)[C@](C)(O)C[C@@H](C)CN(C)[C@H](C)[C@@H](O)[C@]1(C)O :: no

Entry NC[C@H]1O[C@H](O[C@H]2[C@H](O)[C@@H](O[C@H]3O[C@H](CO)[C@@H](O)[C@H](N)[C@H]3O)[C@H](N)C[C@@H]2N)[C@H](N)C[C@@H]1O has what efficacy against Klebsiella (Calymmatobacterium) granulomatis? yes

----------
# System: Clostridium difficile
# assay_remarks: Expected efficacy of antibiotic agents
# Format: cell-based
# condition_description: Gram: anaer
observed_property: efficacy against Clostridium difficile

NC[C@H]1O[C@H](O[C@H]2[C@H](O)[C@@H](O[C@H]3O[C@H](CO)[C@@H](O)[C@H](N)[C@H]3O)[C@H](N)C[C@@H]2N)[C@H](N)C[C@@H]1O [Tobramycin] :: no
CC[C@H]1OC(=O)[C@H](C)[C@@H](O[C@H]2C[C@@](C)(OC)[C@@H](O)[C@H](C)O2)[C@H](C)[C@@H](O[C@@H]2O[C@H](C)C[C@H](N(C)C)[C@H]2O)[C@](C)(O)C[C@@H](C)CN(C)[C@H](C)[C@@H](O)[C@]1(C)O [Azithromycin] :: no
CO/N=C(\C(=O)N[C@@H]1C(=O)N2C(C(=O)O)=C(CSc3nc(=O)c(=O)[nH]n3C)CS[C@H]12)c1csc(N)n1 [Ceftriaxone] :: no
CN[C@H](CC(C)C)C(=O)N[C@H]1C(=O)N[C@@H](CC(N)=O)C(=O)N[C@H]2C(=O)N[C@H]3C(=O)N[C@H](C(=O)N[C@H](C(=O)O)c4cc(O)cc(O)c4-c4cc3ccc4O)[C@H](O)c3ccc(c(Cl)c3)Oc3cc2cc(c3O[C@@H]2O[C@H](CO)[C@@H](O)[C@H](O)[C@H]2O[C@H]2C[C@](C)(N)[C@H](O)[C@H](C)O2)Oc2ccc(cc2Cl)[C@H]1O [Vancomycin] :: yes

----------
# System: Proteus mirabilis
# assay_remarks: Expected efficacy of antibiotic agents
# Assay type: cell-based
# condition_description: Gram: neg
observed_property: efficacy against Proteus mirabilis

NC[C@H]1O[C@H](O[C@H]2[C@H](O)[C@@H](O[C@H]3O[C@H](CO)[C@@H](O)[C@H](N)[C@H]3O)[C@H](N)C[C@@H]2N)[C@H](N)C[C@@H]1O :: yes
CO/N=C(\C(=O)N[C@@H]1C(=O)N2C(C(=O)O)=C(CSc3nc(=O)c(=O)[nH]n3C)CS[C@H]12)c1csc(N)n1 :: yes
O=C(O)c1cn(C2CC2)c2cc(N3CCNCC3)c(F)cc2c1=O :: yes
CC[C@H]1OC(=O)[C@H](C)[C@@H](O[C@H]2C[C@@](C)(OC)[C@@H](O)[C@H](C)O2)[C@H](C)[C@@H](O[C@@H]2O[C@H](C)C[C@H](N(C)C)[C@H]2O)[C@](C)(O)C[C@@H](C)CN(C)[C@H](C)[C@@H](O)[C@]1(C)O :: no
C/C(=C\C(=O)OCCCCCCCCC(=O)O)C[C@@H]1OC[C@H](C[C@@H]2O[C@H]2[C@@H](C)[C@H](C)O)[C@@H](O)[C@H]1O :: no

Entry CN[C@H](CC(C)C)C(=O)N[C@H]1C(=O)N[C@@H](CC(N)=O)C(=O)N[C@H]2C(=O)N[C@H]3C(=O)N[C@H](C(=O)N[C@H](C(=O)O)c4cc(O)cc(O)c4-c4cc3ccc4O)[C@H](O)c3ccc(c(Cl)c3)Oc3cc2cc(c3O[C@@H]2O[C@H](CO)[C@@H](O)[C@H](O)[C@H]2O[C@H]2C[C@](C)(N)[C@H](O)[C@H](C)O2)Oc2ccc(cc2Cl)[C@H]1O has what efficacy against Proteus mirabilis? no

----------
# Test system: Providencia stuartii
# assay_remarks: Expected efficacy of antibiotic agents
# Format: cell-based
# condition_description: Gram: neg
observed_property: efficacy against Providencia stuartii

Below, each entry is followed by its recorded efficacy against Providencia stuartii result.
C/C(=C\C(=O)OCCCCCCCCC(=O)O)C[C@@H]1OC[C@H](C[C@@H]2O[C@H]2[C@@H](C)[C@H](C)O)[C@@H](O)[C@H]1O :: no
O=C(O)c1cn(C2CC2)c2cc(N3CCNCC3)c(F)cc2c1=O :: yes
CN[C@H](CC(C)C)C(=O)N[C@H]1C(=O)N[C@@H](CC(N)=O)C(=O)N[C@H]2C(=O)N[C@H]3C(=O)N[C@H](C(=O)N[C@H](C(=O)O)c4cc(O)cc(O)c4-c4cc3ccc4O)[C@H](O)c3ccc(c(Cl)c3)Oc3cc2cc(c3O[C@@H]2O[C@H](CO)[C@@H](O)[C@H](O)[C@H]2O[C@H]2C[C@](C)(N)[C@H](O)[C@H](C)O2)Oc2ccc(cc2Cl)[C@H]1O :: no
CO/N=C(\C(=O)N[C@@H]1C(=O)N2C(C(=O)O)=C(CSc3nc(=O)c(=O)[nH]n3C)CS[C@H]12)c1csc(N)n1 :: yes

Shifting focus to the compound that follows.
Entry CC[C@H]1OC(=O)[C@H](C)[C@@H](O[C@H]2C[C@@](C)(OC)[C@@H](O)[C@H](C)O2)[C@H](C)[C@@H](O[C@@H]2O[C@H](C)C[C@H](N(C)C)[C@H]2O)[C@](C)(O)C[C@@H](C)CN(C)[C@H](C)[C@@H](O)[C@]1(C)O has what efficacy against Providencia stuartii? no
